# Tested on: B16-F10
# Assay: Toxicity in mouse B16F10 cells up to 5 uM incubated in dark for 24 hrs by MTT assay
# Assay type: cell-based
# Settings: b16-f10, 24 h

{"columns": ["Compound", "Activity"],
 "data": [
  ["O=C([O-])c1c(Cl)c(Cl)c(Cl)c(Cl)c1-c1c2cc(I)c(=O)c(I)c-2oc2c(I)c([O-])c(I)cc12.[Na+].[Na+] [ROSE BENGAL SODIUM]", "Non-Toxic"],
  ["O=C(O)CCCCCCCOC(=O)c1c(Cl)c(Cl)c(Cl)c(Cl)c1-c1c2cc(I)c(=O)c(I)c-2oc2c(I)c(O)c(I)cc12", "Non-Toxic"],
  ["COCCOCCOCCOCCOC(=O)CCCCCCCOC(=O)c1c(Cl)c(Cl)c(Cl)c(Cl)c1-c1c2cc(I)c(=O)c(I)c-2oc2c(I)c(O)c(I)cc12", "Non-Toxic"]
]}

* * *

# Assay: Drug uptake in human HepG2 cells at 5 uM after 2 hrs by confocal microscopy
# Type: ADME, cell-based
# Settings: hepg2, 2 h
Property: Drug uptake

{"columns": ["Molecule", "Drug uptake"],
 "data": [
  ["O=C(CCCCCCCOC(=O)c1c(Cl)c(Cl)c(Cl)c(Cl)c1-c1c2cc(I)c(=O)c(I)c-2oc2c(I)c(O)c(I)cc12)Nc1cccc2ccccc12", "Active"],
  ["O=C(O)CCCCCCCOC(=O)c1c(Cl)c(Cl)c(Cl)c(Cl)c1-c1c2cc(I)c(=O)c(I)c-2oc2c(I)c(O)c(I)cc12", "Active"],
  ["O=C(CCCCCCCOC(=O)c1c(Cl)c(Cl)c(Cl)c(Cl)c1-c1c2cc(I)c(=O)c(I)c-2oc2c(I)c(O)c(I)cc12)Nc1cccc2cccnc12", "Active"],
  ["O=C([O-])c1c(Cl)c(Cl)c(Cl)c(Cl)c1-c1c2cc(I)c(=O)c(I)c-2oc2c(I)c([O-])c(I)cc12.[Na+].[Na+] [ROSE BENGAL SODIUM]", "Active"]
]}

[ask] Quick one: give measured Drug uptake for COCCOCCOCCOCCOC(=O)CCCCCCCOC(=O)c1c(Cl)c(Cl)c(Cl)c(Cl)c1-c1c2cc(I)c(=O)c(I)c-2oc2c(I)c(O)c(I)cc12
[reply] Active

[ask] Quick one: give measured Drug uptake for COCCOCCOC(=O)CCCCCCCOC(=O)c1c(Cl)c(Cl)c(Cl)c(Cl)c1-c1c2cc(I)c(=O)c(I)c-2oc2c(I)c(O)c(I)cc12
[reply] Active

* * *

# Assay: Octanol-water partition coefficient, log P of the compound after 10 mins
# Assay type: physicochemical
The threshold is 0.9. Values of logP at 10 min beneath it are tagged True; values meeting or exceeding it are tagged False.

{"columns": ["Compound", "Assigned Category"],
 "data": [
  ["O=C(CCCCCCCOC(=O)c1c(Cl)c(Cl)c(Cl)c(Cl)c1-c1c2cc(I)c(=O)c(I)c-2oc2c(I)c(O)c(I)cc12)Nc1cccc2ccccc12", "False"],
  ["O=C([O-])c1c(Cl)c(Cl)c(Cl)c(Cl)c1-c1c2cc(I)c(=O)c(I)c-2oc2c(I)c([O-])c(I)cc12.[Na+].[Na+] [ROSE BENGAL SODIUM]", "True"],
  ["COCCOCCOCCOCCOC(=O)CCCCCCCOC(=O)c1c(Cl)c(Cl)c(Cl)c(Cl)c1-c1c2cc(I)c(=O)c(I)c-2oc2c(I)c(O)c(I)cc12", "True"]
]}

Next:
[ask] Is 0.9 strictly greater than the compound's reported logP at 10 min? compound: O=C(CCCCCCCOC(=O)c1c(Cl)c(Cl)c(Cl)c(Cl)c1-c1c2cc(I)c(=O)c(I)c-2oc2c(I)c(O)c(I)cc12)Nc1cccc2cccnc12
[reply] False
